assay: NCI Yeast Anticancer Drug Screen. Data for the wt2 strain (AID 169);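 further: 0% = growth of vehicle-treated yeast cultures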; settings: S. cerevisiae wt2 strain growth inhibition; at 11.0 µM; hits give high values
Compounds without any hit were thinned out: in the full panel of roughly 79,000, 15% have a hit.
Observable: growth inhibition (%)
The figure you give is taken to be in %; do not add the unit.

Give its growth inhibition value. Item: "CN(CCOc1ccc(Cl)cc1)CCOc1ccc(Cl)cc1" 26

Give its growth inhibition value. Item: "Cc1cc(OCc2nc(N)nc(N)c2-c2ccc(Cl)c(Cl)c2)ccc1[N+](=O)[O-]" 4

Give its growth inhibition value. Item: "CCCCCCCCCCCCCCCCCCNC(=S)/N=C/c1c(O)c2ccccc2[nH]c1=O" -2

Give its growth inhibition value. Item: "CCN(CC)CCNc1ccc(C)c2sc3ccc(O)cc3c(=O)c12" -17

Give its growth inhibition value. Item: "N#[N+]c1c([O-])c2ccccc2c2ccccc12" 12

Give its growth inhibition value. Item: "CCCCS(=O)(=O)Nc1ccc(Nc2c3ccccc3nc3ccccc23)c(OC)c1" -13

Give its growth inhibition value. Item: CCOC(=O)CC1(C)/C(=N\Nc2ccc([N+](=O)[O-])cc2[N+](=O)[O-])CCC2C1CCC1(C)C(C(C)CCCC(C)C)CCC21 (stereo not given) 0

Give its growth inhibition value. Item: COc1ccc(C(OCC2OC(n3cnc4c(=O)n(Cc5ccccc5[N+](=O)[O-])nnc43)C(O)C2O)(c2ccccc2)c2ccc(OC)cc2)cc1 (stereo not given) 6

Give its growth inhibition value. Item: "O=C(NO)c1coc2ccccc2c1=O" -3

Give its growth inhibition value. Item: O=CC1(F)CC1(c1ccccc1)c1ccccc1 (stereo not given) -2

* * *

assay: NCI Yeast Anticancer Drug Screen. Data for the CLN2oe strain (AID 163);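 further: 0% = growth of vehicle-only control cultures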; settings: S. cerevisiae CLN2oe strain, at 33.0 µM, hits give high values
About 79,000 compounds went through this panel and 15% of them were active in at least one assay; those are over-represented in the sample as a whole.
Observable: growth inhibition (%)
The figure you give is taken to be in %; do not add the unit.

Give its growth inhibition value. Item: "CCOC(=O)/C(=C\c1cccc(C)c1)C(C)=O" 92

Give its growth inhibition value. Item: "COc1ccc2nc3cccc([N+](=O)[O-])c3c(NCCCCCC(=O)O)c2c1" 97

Give its growth inhibition value. Item: "CC1=C(C)C(=O)C2=C(OCCO2)C1=O" 15

Give its growth inhibition value. Item: C=CC(C)(C)N1C(=O)C(C(C)=O)=C(O)C1Cc1c[nH]c2ccccc12 (stereo unspecified) 16

Give its growth inhibition value. Item: CCC(OC(C)=O)C1CC(C(C)C)CCC1C (stereo unspecified) 0

Give its growth inhibition value. Item: "COc1cc(NCCCCNCC(C)(C)C)c2ncccc2c1" 25

Give its growth inhibition value. Item: "CO[C@@]1([C@@H](Cl)c2ccccc2)C(=O)N(C)/C(=C\c2ccccc2)C(=O)N1C" 5

Give its growth inhibition value. Item: "S=C1C(=Nc2ccccc2)N(c2ccccc2)/C(=N\c2ccccn2)N1c1ccccc1" 99

Give its growth inhibition value. Item: "O=c1cccccc1[O-].O=c1cccccc1[O-].O=c1cccccc1[O-].[Eu+3]" 92

Give its growth inhibition value. Item: "CC1(C)CC(=O)C(C=NC(=S)C(N)=S)=C(O)C1" -10

Give its growth inhibition value. Item: "COc1ccc(N=c2cc(-c3ccccc3)oc3ccccc23)cc1" -8

* * *

assay: NCI Yeast Anticancer Drug Screen. Data for the CLN2oe strain (AID 163);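 further: 0% = growth of vehicle-only control cultures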; conditions: S. cerevisiae CLN2oe strain, at 3.7 µM, hits give high values
The panel holds about 79,000 compounds, 15% with a hit somewhere; the sample as a whole holds those more often.
For each record, write down the corresponding growth inhibition.
The figure you give is taken to be in %; do not add the unit.

Give its growth inhibition value. Item: "COc1cc([N+](=O)[O-])c2ncccc2c1Br" -7

Give its growth inhibition value. Item: O=C1C(/C=C/c2ccc(Cl)cc2)=NNC2N1N=C1NC(=O)C3(NN12)c1ccccc1-c1ccccc13 (stereo unspecified) -3

Give its growth inhibition value. Item: "CS(=O)(=O)O.[Ag]" 99

Give its growth inhibition value. Item: "c1cc(-c2sc(-c3ccncc3)c(-c3ccncc3)c2-c2ccncc2)ccn1" 1

Give its growth inhibition value. Item: "O=C(c1ccccc1)[C@H]1Nc2ccc(Cl)cc2[C@H]2OCCC[C@@H]12" 2

Give its growth inhibition value. Item: "CCCCN(CCCC)c1ccc(N=Nc2ccc(S(=O)(=O)O)cc2)cc1" -15

Give its growth inhibition value. Item: "O=C1c2ccccc2-c2cc3ccccc3c(=O)n21" 4

Give its growth inhibition value. Item: Cc1cccc2c1C1c3c(C)cccc3C(CC(=O)O)CC1CC2 (stereo unspecified) 90

Give its growth inhibition value. Item: "COc1ccc2nc3cccc([N+](=O)[O-])c3c(NCCCCCC(=O)O)c2c1" 50

Give its growth inhibition value. Item: "Clc1ccc(/C(=C\c2ccccc2)Cn2ccnc2)cc1" 21

Give its growth inhibition value. Item: "O=c1c2ccccc2nc(-c2cccc([N+](=O)[O-])c2)n1O" 15

* * *

For each record, write down the corresponding growth inhibition.
test: NCI Yeast Anticancer Drug Screen. Data for the wt2 strain (AID 169);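 further: 0% = growth of vehicle-treated yeast cultures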; conditions: S. cerevisiae wt2 strain growth inhibition; at 1.2 µM; hits give high values
About 79,000 compounds went through this panel and 15% of them were active in at least one assay; those are over-represented in the sample as a whole.
The figure you give is taken to be in %; do not add the unit.

Give its growth inhibition value. Item: Cc1cccc(C)c1NC(=O)CCC(=O)C(C)C(=O)c1ccc(O)cc1 (stereo unspecified) -1

Give its growth inhibition value. Item: "Cc1ccc(NC(Nc2ccc(C)cc2C)=C(C(Cl)=C(Cl)Cl)[N+](=O)[O-])c(C)c1" 2

Give its growth inhibition value. Item: "O=[N+]([O-])c1ccc2[nH]c3c(-c4ccccc4)nccc3c2c1" 0

Give its growth inhibition value. Item: "CNCC(C)CNC" -30

Give its growth inhibition value. Item: CCC(C)COC(=O)Nc1cccc(Cl)c1 (stereo unspecified) -2

Give its growth inhibition value. Item: O=C1C2=C(c3ccccc31)C(c1ccccc1)N1C(=O)CSC1=N2 (stereo unspecified) 2

Give its growth inhibition value. Item: "COC(=N)c1ccc(O)c(C)c1" -2

Give its growth inhibition value. Item: "Cc1c(C(=O)/C=C/c2ccccc2[N+](=O)[O-])[n+](=O)c2ccccc2n1[O-]" 44

Give its growth inhibition value. Item: "C=COC(=O)N[C@H]1CCc2cc(OC)c(OC)c(OC)c2-c2ccc(SC)c(=O)cc21" -3

Give its growth inhibition value. Item: "O=[N+]([O-])c1cccc2nc3ccccc3c(NCCCN3CCCCC3)c12" 1

Give its growth inhibition value. Item: "CC(C)C(c1ccccc1)c1ccccc1" -2

* * *

assay: NCI Yeast Anticancer Drug Screen. Data for the mec2-1 strain (AID 157); conditions: S. cerevisiae mec2-1 strain, at 50.0 µM (retest, dose inferred, filed as 5.0), hits give high values
Compounds without any hit were thinned out: in the full panel of roughly 79,000, 15% have a hit.
Please use met whenever growth inhibition is not below 50%, and not met whenever it is.

Reported growth inhibition at or above 50%? "Cc1cc(C)c(S(=O)(=O)c2ccc(Cl)cc2)c(C)c1" not met

Reported growth inhibition at or above 50%? "O=[N+]([O-])c1ccc2[nH]c3c(-c4ccccc4)nccc3c2c1" met

Reported growth inhibition at or above 50%? "CC1(C)CC(=O)C(C=NC(=S)C(N)=S)=C(O)C1" not met

Reported growth inhibition at or above 50%? CC1CCC(C2=CSC3CCCCC3N2)CC1 (stereo unspecified) met

Reported growth inhibition at or above 50%? O=C1CSC(c2ccccc2)N1c1ccc(-c2ccc(-n3c(-c4ccccc4)nc4ccccc4c3=O)cc2)cc1 (stereo unspecified) not met

Reported growth inhibition at or above 50%? "O=C(CCCN1CCC(Nc2ccc(F)cc2)(c2nnnn2C2CCCCC2)CC1)c1ccc(F)cc1" not met

Reported growth inhibition at or above 50%? "CN(C)/C(=N/C(=S)Nc1ccccc1)SCc1ccccc1" met

Reported growth inhibition at or above 50%? "COC(=N)c1ccc(O)c(C)c1" not met

Reported growth inhibition at or above 50%? "O=C(C(Cl)=C(N1CCCCC1)N1CCCCC1)C(Cl)Cl" met

Reported growth inhibition at or above 50%? "Clc1nc(Cl)nc(Nc2cccc3ccccc23)n1" met

* * *

experiment: NCI Yeast Anticancer Drug Screen. Data for the rad50 strain (AID 155);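 further: 0% = growth of vehicle-only cultures of the same strain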; conditions: S. cerevisiae rad50 strain growth inhibition; at 50.0 µM (retest, dose inferred, filed as 5.0); hits give high values
Compounds without any hit were thinned out: in the full panel of roughly 79,000, 15% have a hit. Calls of active or inactive are those of the source. Cut-off read from the data, not from the text of the source: active = growth inhibition above about 70%; inactive = the rest.
For each record, write down the corresponding growth inhibition.

Give its growth inhibition value. Item: "COC(=O)/C(C#N)=C\NC(=S)C(N)=S" 98% (active)

Give its growth inhibition value. Item: "CCCCCCCCCCCCOCCOCCOCC(N)=O" 36% (inactive)

Give its growth inhibition value. Item: COc1cc2c(cc1O)[C@H](C)C(c1ccccc1OC)O2 (stereo partly specified) 4% (inactive)

Give its growth inhibition value. Item: "CCCN=Cc1cc(Cc2ccc(O)c(C=NCCC)c2)ccc1O" 99% (active)

Give its growth inhibition value. Item: "c1cc(-c2sc(-c3ccncc3)c(-c3ccncc3)c2-c2ccncc2)ccn1" 81% (active)

Give its growth inhibition value. Item: "O=C1c2ccccc2C(=O)c2sc(Nc3ccccc3Cl)nc21" 99% (active)

Give its growth inhibition value. Item: "CN(N=O)C(=O)Nc1ccc(C(=O)O)cc1" 68% (inactive)

Give its growth inhibition value. Item: "Cc1cc(C)c(S(=O)(=O)c2ccc(Cl)cc2)c(C)c1" 3% (inactive)

Give its growth inhibition value. Item: "CC(C)(CN1CCCCC1)C(=O)/C=C/c1c(Cl)cccc1Cl" 99% (active)

Give its growth inhibition value. Item: "CCN(CC)CCNc1ccc2ncn3c4ccc(O)cc4c(=O)c1c23" 65% (inactive)

Give its growth inhibition value. Item: "Cn1c(-c2ccc(/C=N\N3CCN(/N=C/c4ccc(-c5c[n+]6ccsc6n5C)cc4)CC3)cc2)c[n+]2ccsc12" 29% (inactive)
